- System: DMS-273
- Assay method text: NCI tumour cell line growth inhibition, 48 h
The source made the active and inactive calls. Cut-off read from the data, not from the text of the source: active = GI50 up to about 1.1 µM and inactive = higher.
Please answer using one outcome listed in Yes for active, No for inactive

Examples from the recorded data:
* O=C(/C=C\c1cccc2ccccc12)c1ccc(Br)cc1 | No
* COc1cc2cc3c4c(cc(OC)c(OC)c4c2cc1OC)CCN3C(=O)CCCC(=O)O | No
* CCCCCCCCCC[S+]([O-])CC(CO)NC(=O)/C=C/c1c(C)nc(O)nc1O (centres undefined) | Yes

Q) // param item: O=C1C2Cc3ccccc3CN2C(=O)N1CCN1CCCC1 (centres undefined) ; yields the recorded call
A) No

* * *

- System: SF-539
- Assay method text: NCI tumour cell line growth inhibition, 48 h
Counter-ions that a name gives are not always drawn. Calls of active or inactive are those of the source. No stated cut-off is given here; in the data, active = GI50 up to about 1.1 µM and inactive = higher. Where a SMILES comes first, the peptide text is derived from it. The star is where a group is joined. Fmoc = O=C(OCC1c2ccccc2-c2ccccc21)*; Boc = CC(C)(C)OC(=O)*
Please answer using one outcome listed in True = active, False = inactive

* C(=N\N=C1NCCCCN1)/c1ccc2ccccc2c1 | False
* O=C1CCC2(c3ccc(F)cc3)Nc3ccccc3N12 (stereo not given) | False
* CC(C)(C)OC(=O)NCCCCC(NC(=O)C(Cc1c[nH]c2ccccc12)NC(=O)OCC1c2ccccc2-c2ccccc21)C(=O)O (stereo not given) (Fmoc-Trp-Lys(Boc)-OH; configuration not given here) | False

Q) // param item: CN(C)CCNC(=O)c1ccc(Cl)c2cc3ccccc3nc12 ; yields the recorded call
A) True

Q) // param item: O=C1NC(=S)NC1C(Cc1ccccc1)c1ccco1 (stereo not given) ; yields the recorded call
A) False

Q) // param item: Cc1ccc2c(c1C)C(=O)C1(C2)Cc2ccc3c(c2C1=O)CCC3 (stereo not given) ; yields the recorded call
A) False

Q) // param item: O=C1C(Cl)N(c2ccc(Cl)cc2)C1c1c[nH]c2ccccc12 (stereo not given) ; yields the recorded call
A) False

Q) // param item: CC[C@]12C=CCN3CC[C@@]4(c5cc(Br)c(OC)cc5N(C)[C@H]4[C@@](O)(C(=O)N[C@@H](Cc4ccc(O)cc4)C(=O)OC)[C@@H]1O)[C@@H]32 ; yields the recorded call
A) False

Q) // param item: c1ccc2c(c1)ccc1nc(-c3ccc4c(c3)OCO4)c3c(c12)CCCC3 ; yields the recorded call
A) False

Q) // param item: O=C(O)c1ccccc1-c1ccccc1C(=O)c1ccccc1 ; yields the recorded call
A) False

Q) // param item: COC(=O)[C@](C)(Cc1ccccc1)NC(=O)[C@@H](C)N1[C@@H](c2ccccc2)COC1(C)C ; yields the recorded call
A) False

Q) // param item: COc1ncnc2c(Cl)c(C(O)c3ccccc3)c(Cl)cc12 (stereo not given) ; yields the recorded call
A) False

Q) // param item: CCOc1ccc(NCC2CC/C(=C\c3ccc(Cl)cc3)C2=O)cc1 (stereo not given) ; yields the recorded call
A) False

Q) // param item: O=C(Nc1cccc(-c2cn3ccccc3n2)c1)c1ccncc1 ; yields the recorded call
A) False

Q) // param item: c1cc(CSP234N5CCN2CCN3CCN4CC5)cc(CSP234N5CCN2CCN3CCN4CC5)c1 ; yields the recorded call
A) False

Q) // param item: NCCSSCCN [CYSTAMINE HYDROCHLORIDE] ; yields the recorded call
A) False

* * *

Catalogue of compounds with associated GI50
- Test system: SW-620
- Assay method text: NCI tumour cell line growth inhibition, 48 h
Activity calls are given as the source filed them. Rule as the data show it: active = GI50 up to about 1.1 µM and inactive = higher.

Observe how each entry below is paired with its result.
* CC(C)CC(=O)CC(O)C(Cl)(Cl)Cl (stereo not given) | > 100 µM (inactive)
* O=c1cc(NNCc2ccccc2)[nH]c(=O)[nH]1 | > 100 µM (inactive)
* CCCCCCc1cc2cc(C(=O)Nc3cccc(C(F)(F)F)c3)c(=N)oc2cc1O | 2.2 µM (inactive)

Q) Indicate its recorded GI50; the compound in question is CC(C)CC(N)C(=O)O (stereo not given)
A) > 100 µM (inactive)

Q) Indicate its recorded GI50; the compound in question is COc1ccc(C(=C[N+](=O)[O-])c2ccc(OC)cc2)cc1
A) 4.02 µM (inactive)

Q) Indicate its recorded GI50; the compound in question is [O-][S+](c1ccccc1)c1ccc(/N=N/O)nc1 (stereo not given)
A) > 100 µM (inactive)

Q) Indicate its recorded GI50; the compound in question is COC(=O)/C=C\Sc1ccn(/C=C\C(=O)OC)c(=S)n1
A) 26 µM (inactive)

Q) Indicate its recorded GI50; the compound in question is CC(=O)c1ccc(Oc2c3ccccc3nc3ccccc23)cc1
A) 4.33 µM (inactive)

* * *

- Test system: A498
- Assay method text: NCI tumour cell line growth inhibition, 48 h
Active and inactive are the calls of the source. No stated cut-off is given here; in the data, active = GI50 up to about 1.1 µM and inactive = higher.
Catalogue of compounds with associated GI50

* CN(C)CCSS(=O)(=O)O | > 100 µM (inactive)
* CCCCCCCCCC1CC(=O)Oc2cccc(O)c21 (stereo not given) | 22.1 µM (inactive)
* C=C[C@@]1(C)CC(=O)[C@]2(O)[C@@]3(C)[C@@H](O)CCC(C)(C)[C@@H]3[C@H](O)[C@@H](OC(C)=O)[C@@]2(C)O1 | > 100 µM (inactive)

Q) Indicate its recorded GI50; the compound in question is O=C1NC(=S)NC1C(Cc1ccccc1)c1ccco1 (stereo not given)
A) > 100 µM (inactive)

* * *

- Test system: HOP-92
- Assay method text: NCI tumour cell line growth inhibition, 48 h
Calls of active or inactive are those of the source. Rule as the data show it: active = GI50 up to about 1.1 µM and inactive = higher.
Property label: GI50

Observe how each entry below is paired with its result.
• Cc1ccc(S(=O)(=O)N2CC3OC(C)(C)OC3C2CO)cc1 (stereo not drawn) = > 100 µM (inactive)
• Nc1ccc(CCN2CCN(c3cccc(C(F)(F)F)c3)CC2)cc1 = 54.8 µM (inactive)

Q) Indicate its recorded GI50; the molecule in question is COc1ccc2c3c([nH]c2c1)[C@H](C=C(C)C)N1C(=O)[C@@H]2CCCN2C(=O)[C@@H]1C3 [FUMITREMORGIN]
A) 38.7 µM (inactive)

Q) Indicate its recorded GI50; the molecule in question is CCOC(=O)COC1=Nc2cc(OC)c(OC)c3nc(Cl)cc(c23)C1=O
A) 1.7 µM (inactive)

Q) Indicate its recorded GI50; the molecule in question is CC1(C)CC(=O)C2=C(C1)OC1(CC2c2ccc(Cl)cc2)CC(c2ccc(Cl)cc2)C2=C(CC(C)(C)CC2=O)O1 (stereo not drawn)
A) 3.52 µM (inactive)

* * *

- Test system: SNB-75
- Assay method text: NCI tumour cell line growth inhibition, 48 h
The source made the active and inactive calls. No stated cut-off is given here; in the data, active = GI50 up to about 1.1 µM and inactive = higher.
Catalogue of compounds with associated GI50

Observe how each entry below is paired with its result.
• CC(C)C1/C(=N/O)CC(c2ccccc2)N(N=O)C1c1ccccc1 (stereo unspecified) = 38.8 µM (inactive)
• O=C1[C@@H](O)[C@@H]2CCCC[C@@]23CCCN13 = 37.6 µM (inactive)
• O=C(CC1C(=O)Nc2ccccc2[S+]1[O-])Nc1cccc(Cl)c1 (stereo unspecified) = 16.4 µM (inactive)
• CC(=O)NC(CCCNC(=O)N(CCCl)N=O)C(=O)NCc1ccccc1 (stereo unspecified) = 9.71 µM (inactive)

Q) Indicate its recorded GI50; the compound in question is O=C(Nc1cccc(-c2cn3ccccc3n2)c1)c1ccncc1
A) 46.1 µM (inactive)

Q) Indicate its recorded GI50; the compound in question is Nc1nccc(NCC2(CO)CC(OCc3ccccc3)C2)n1 (stereo unspecified)
A) > 100 µM (inactive)

Q) Indicate its recorded GI50; the compound in question is CCOC(=O)COC1=Nc2cc(OC)c(OC)c3nc(Cl)cc(c23)C1=O
A) 2.51 µM (inactive)

Q) Indicate its recorded GI50; the compound in question is c1cc(CSP234N5CCN2CCN3CCN4CC5)cc(CSP234N5CCN2CCN3CCN4CC5)c1
A) 20.1 µM (inactive)

Q) Indicate its recorded GI50; the compound in question is O=C(O)c1ccccc1-c1ccccc1C(=O)c1ccccc1
A) > 100 µM (inactive)

Q) Indicate its recorded GI50; the compound in question is NN/C(Cc1ccccc1)=N/NC(N)=S
A) > 100 µM (inactive)

Q) Indicate its recorded GI50; the compound in question is Cc1cc(O)nc(NNC(C#N)c2c(O)ccc3ccccc23)n1 (stereo unspecified)
A) 15 µM (inactive)

Q) Indicate its recorded GI50; the compound in question is CCCCCCCCCCCC(=O)OCC1OC(OC)C(NC(=O)N(CCCl)N=O)C(O)C1O (stereo unspecified)
A) 14.1 µM (inactive)

Q) Indicate its recorded GI50; the compound in question is CC1=C(SC#N)S(=O)(=O)N(c2ccccc2)C(C)=C1SC#N
A) 27 µM (inactive)

Q) Indicate its recorded GI50; the compound in question is Cc1cc2cc3c(cc2c(-c2ccc([N+](=O)[O-])cc2)n1)OCO3
A) 19.7 µM (inactive)

Attribution: ChEMBL document CHEMBL1201862
